- Measurement notes: qHTS RealTime-Glo MT Cell Viability Assay in HepG2 cells - 0 hour (AID 1224889); also: nearly all actives have a fitted effect of over 50% in size
- Study conditions: RealTime-Glo luminescence; series mostly up to 76.8 µM
Inconclusive results are not listed. Active and inactive are the calls of the source. Calls follow the shape of the dose curve; as a rule, active = well fitted cell-killing curve with a large enough effect in the repeat runs; inconclusive = weak or mixed curves, or effect the other way; inactive = flat fitted curve, though single readings scatter.
Field 'call' accepts label 1 = active, label 0 = inactive

For C[N+](C)(C)CC(=O)[O-] , what call appears in the results of this test? label 0

Status in this test for Nc1ccc([N+](=O)[O-])cc1N ? label 0

Next item in the queue.
In this assay, the call recorded for CSc1nc(NC(C)C)nc(NC(C)C)n1 was what? label 0

* * *

- Measurement notes: qHTS assay to test for compound auto fluorescence at 535 nm (green) in HepG2 cell free culture (AID 720686)
- Study conditions: Cell-free medium, green autofluorescence 485/535 nm; series mostly up to 91.3 µM
The source made the active and inactive calls. Calls follow the shape of the dose curve; as a rule, active = well fitted curve in the direction sought with a large enough effect in the repeat runs; inconclusive = weak or mixed curves; inactive = flat fitted curve, though single readings scatter.
Recorded endpoint: outcome

Fill blank: measured outcome of the compound c1ccc2c(c1)Nc1ccccc1S2 is ____. inactive

Query: outcome; subject: CC1(C)C(C(=O)OC(C#N)c2cccc(Oc3ccccc3)c2)C1(C)C (stereo not drawn) inactive

Any idea what its outcome is? The compound is N#CC(c1ccccc1)c1ccccc1 inactive

Reported outcome, compound CC(C)(C#N)N=NC(C)(C)C#N : ____ inactive

Param item = CCOP(=O)(OCC)OCC ; retrieve measured outcome. inactive

Item CNC(=O)CSP(=S)(OC)OC has what recorded outcome? inactive

Tell me the measured outcome of Brc1ccc(Br)cc1 , please. inactive

# input for lookup
Form field: reported outcome of CCCCC(C#N)(Cn1cncn1)c1ccc(Cl)cc1 (stereo not drawn) inactive

* * *

- Measurement notes: qHTS assay for small molecule activators of the heat shock response signaling pathway - cell viability counter screen (AID 743209); also: nearly all actives have a fitted effect of over 50% in size; also: potency is read from the fitted curve at half-maximal effect
- Study conditions: HSE-bla HeLa viability, CellTiter-Glo luminescence, 5 h; series mostly up to 62.6 µM
Records with an inconclusive call do not appear. Activity calls are given as the source filed them. The call rests on the fitted dose curve; in most records, active means well fitted cell-killing curve with a large enough effect in the repeat runs; inconclusive means weak or mixed curves, or effect the other way; inactive means no such curve, though single readings can be large or run the other way.
Recorded endpoint: Potency

// worked examples, Potency included
Would you kindly share the measured Potency for O=S(=O)(O)C(F)(F)C(F)(F)C(F)(F)C(F)(F)C(F)(F)C(F)(F)C(F)(F)C(F)(F)F ? inactive

Potency for COP(=S)(OC)SCn1nnc2ccccc2c1=O ? inactive

Any idea what Potency was measured for CNC(=O)Oc1cccc2c1OC(C)(C)C2 ? inactive

Can you share its Potency? I mean this compound: O=NN(c1ccccc1)c1ccccc1 inactive

Now look at this one.
For the compound shown here, CCC[CH2][Sn]([Cl])([Cl])[CH2]CCC , give the reported Potency. 54.9 nM (active)

* * *

- Measurement notes: qHTS assay to identify small molecule antagonists of the progesterone receptor (PR) signaling pathway - cell viability counter screen (AID 1346798);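 also: HEK293T PR-UAS-bla cells stimulated with the agonist R5020; nearly all actives have a fitted effect of over 50% in size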
- Study conditions: PR-UAS-bla HEK293T viability, CellTiter-Glo luminescence, 16 h; series mostly up to 92.4 µM
Results filed as inconclusive are left out. Active and inactive are the calls of the source. Calls come from the whole dose curve; as a rule, active = well fitted cell-killing curve with a large enough effect in the repeat runs; inconclusive = weak or mixed curves, or effect the other way; inactive = no such curve, though single readings can be large or run the other way.
Recorded endpoint: outcome

Endpoint output: outcome of Oc1ccc(Cl)cc1Cl . Value? inactive

Any idea what its outcome is? The compound is CCOP(=O)(OCC)OCC inactive

GET /values?readout=outcome&item= CC(C)(C#N)N=NC(C)(C)C#N inactive

* * *

- Measurement notes: qHTS assay to identify small molecule agonists of the farnesoid-X-receptor (FXR) signaling pathway - cell viability counter screen (AID 743218); also: nearly all actives have a fitted effect of over 45% in size
- Study conditions: FXR-bla HEK293T viability, CellTiter-Glo luminescence, 16 h; series mostly up to 62.6 µM
Results filed as inconclusive are left out. Activity calls are given as the source filed them. Calls come from the whole dose curve; as a rule, active = well fitted cell-killing curve with a large enough effect in the repeat runs; inconclusive = weak or mixed curves, or effect the other way; inactive = no such curve, though single readings can be large or run the other way.
Can you answer with just one of these options? 1 for active, 0 for inactive

I'd appreciate the recorded outcome for CCCCCCCCCCCCCl from this test. 0

What classification did O=C(O)CF end up with in this test? 0

So what was the verdict on CCC1(c2ccc(N)cc2)CCC(=O)NC1=O (centres undefined) in this test? 0

Name the outcome recorded for CC[n+]1c(-c2ccccc2)c2cc(N)ccc2c2ccc(N)cc21 in the assay. 1

Tell me the recorded outcome of this test for O=C(O)c1nn(Cc2ccc(Cl)cc2Cl)c2ccccc12 . 0

State the result this test recorded for CC(C)=CC1C(C(=O)OCc2cccc(Oc3ccccc3)c2)C1(C)C (centres undefined) . 0

* * *

- Measurement notes: qHTS assay to test for compound auto fluorescence at 535 nm (green) in HepG2 cells (AID 720675)
- Study conditions: green autofluorescence 485/535 nm, 1 h; series mostly up to 91.3 µM
Active and inactive are the calls of the source. Calls come from the whole dose curve; as a rule, active = well fitted curve in the direction sought with a large enough effect in the repeat runs; inconclusive = weak or mixed curves; inactive = flat fitted curve, though single readings scatter.
Recorded endpoint: outcome

Please review the following examples before continuing.
Looking for the measured outcome of CCN(CC)C(=O)C(C)Oc1cccc2ccccc12 (configuration not stated) , can you help? inactive

# get_value(readout='outcome', item= N#Cc1cccnc1 ) inactive

// returns reported outcome for input COc1ccc(C=O)cc1OC inactive

What does the data say about its outcome? Entry: N#Cc1c(Cl)c(Cl)c(Cl)c(C#N)c1Cl inactive

Next:
Look up outcome for this molecule: CS(=O)(=O)NC(=O)c1cc(Oc2ccc(C(F)(F)F)cc2Cl)ccc1[N+](=O)[O-] inactive

Query: outcome; subject: O=P(OCCCl)(OCCCl)OCCCl inactive

Find the recorded outcome belonging to ClC(Cl)(Cl)Br and report it. inactive

* * *

- Measurement notes: qHTS assay for small molecule agonists of the p53 signaling pathway (AID 651631); also: nearly all actives have a fitted effect of over 15% in size
- Study conditions: HCT-116 p53RE-bla reporter, beta-lactamase FRET ratio, 16 h; series mostly up to 73.3 µM
Inconclusive results are not listed. The source made the active and inactive calls. The call rests on the fitted dose curve.
Recorded endpoint: outcome

Could you share which outcome value was measured for COP(=S)(OC)Oc1ccc(S(=O)(=O)N(C)C)cc1 ? inactive

// returns reported outcome for input CCOP(=S)(OCC)SCSC(C)(C)C inactive

Return reported outcome; argument: Cn1c(-c2ccccc2)cc(-c2ccccc2)[n+]1C inactive

* * *

- Measurement notes: qHTS assay for small molecule disruptors of the mitochondrial membrane potential - cell viability (AID 720634); also: nearly all actives have a fitted effect of over 20% in size
- Study conditions: HepG2 viability, ATP luminescence (CellTiter-Glo), 1 h; series mostly up to 83.2 µM
Records with an inconclusive call do not appear. The source made the active and inactive calls. The call rests on the fitted dose curve.
Outcome field: choose from active, inactive

Kindly provide the recorded test outcome for the following molecule: C[C@]12CC[C@H]3[C@@H](CCC4=CC(=O)CC[C@@H]43)[C@@H]1CC[C@@H]2O inactive

What call does the record list for CCOS(=O)(=O)OCC ? inactive

Outcome? COP(=S)(OC)Oc1ccc(Sc2ccc(OP(=S)(OC)OC)cc2)cc1 active

What classification did CNC(=O)Oc1cccc2c1OC(C)(C)C2 end up with in this test? inactive

Which outcome was assigned to CCC(=O)Nc1ccc(Cl)c(Cl)c1 in this test? active

Next:
Given CC(C)(O)C#N , state the outcome it received in this test. inactive

Look up the recorded call for CCCCOC(=O)COC(=O)c1ccccc1C(=O)OCCCC in this test. inactive

* * *

- Tgt: Cytochrome P450 2C9 (Homo sapiens) (UniProt P11712)
- Sequence (P11712 whole entry, looked up): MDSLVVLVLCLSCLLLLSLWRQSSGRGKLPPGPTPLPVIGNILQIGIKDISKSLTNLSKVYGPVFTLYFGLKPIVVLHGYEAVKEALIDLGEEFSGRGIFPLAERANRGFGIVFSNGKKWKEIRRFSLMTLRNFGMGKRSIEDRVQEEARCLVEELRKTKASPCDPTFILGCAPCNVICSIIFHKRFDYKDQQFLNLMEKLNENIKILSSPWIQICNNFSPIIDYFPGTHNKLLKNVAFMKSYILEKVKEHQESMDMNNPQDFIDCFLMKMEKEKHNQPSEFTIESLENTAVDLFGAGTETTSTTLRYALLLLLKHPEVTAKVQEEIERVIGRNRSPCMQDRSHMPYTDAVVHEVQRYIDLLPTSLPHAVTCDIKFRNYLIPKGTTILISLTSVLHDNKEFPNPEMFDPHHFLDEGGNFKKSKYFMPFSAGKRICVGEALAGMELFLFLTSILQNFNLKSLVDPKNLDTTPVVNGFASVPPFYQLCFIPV
- Measurement notes: Cytochrome P450 Family 2 Subfamily C Member 9 (CYP2C9) small molecule antagonists: luciferase reporter qHTS assay (AID 1671198); also: nearly all actives have a fitted effect of over 50% in size
- Study conditions: P450-Glo CYP2C9 enzyme assay, luciferin luminescence; series mostly up to 115 µM
Results filed as inconclusive are left out. The source made the active and inactive calls. Calls follow the shape of the dose curve; as a rule, active = well fitted inhibition curve with a large enough effect in the repeat runs; inconclusive = weak or mixed curves; inactive = no such curve, though single readings can be large or run the other way.
API: response.call in active, inactive

Solved cases below.
Write down the call the test reported for this compound. Item: CC1(C)Cc2cccc(O)c2O1 inactive

Just curious, what result did Brc1ccc(Br)cc1 get here? inactive

Identify the outcome logged in this assay for the compound shown: O=C1CCCO1 inactive

Others:
Check the results log: what was the call for Clc1cccc(Cl)c1 ? inactive

Call for entry ClC(Cl)(Cl)c1ccccc1 : inactive

State the result this test recorded for C[N+](C)(C)C . inactive

# lookup: test call for Cc1cc(Cl)ccc1N=CN(C)C inactive

Assay result, entry COc1ccc(C=O)cc1OC — outcome? inactive

What did the test return for NC(=O)CN1CCCC1=O ? inactive

Returns: the outcome recorded for C[C@]12CC[C@H]3[C@@H](CCC4=CC(=O)CC[C@@H]43)[C@@H]1CC[C@@H]2O in this assay. inactive

* * *

- Measurement notes: qHTS assay to identify small molecule that activate the aryl hydrocarbon receptor (AhR) signaling pathway - cell viability counter screen (AID 743086);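 also: HepG2 liver cells carrying the AhR DRE luciferase reporter; nearly all actives have a fitted effect of over 45% in size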
- Study conditions: HepG2-AhR-luc viability, CellTiter-Fluor, 24 h; series mostly up to 70.3 µM
Inconclusive results are not listed. Active and inactive are the calls of the source. Calls come from the whole dose curve; as a rule, active = well fitted cell-killing curve with a large enough effect in the repeat runs; inconclusive = weak or mixed curves, or effect the other way; inactive = flat fitted curve, though single readings scatter.
Recorded endpoint: outcome

Sample answers from the record:
Entry under review: COC(=O)Nc1nc2ccccc2[nH]1 . Reported outcome? inactive

Request the reported outcome associated with CC(C)Nc1nc(Cl)nc(NC(C)C)n1 inactive

Form field: reported outcome of C=C(C)C#N inactive

outcome for NN=C(N)N ? inactive

I'd like to know its outcome. The compound in question is CCOC(=O)c1ccccc1N inactive

Further cases:
Please report the recorded outcome for Oc1ccc(Cl)cc1Cc1ccccc1 . inactive

# query: outcome of entry CNC(=S)S inactive

Consider the compound CCOS(=O)(=O)OCC and give its measured outcome. inactive

Would you mind telling me what outcome value was observed for N#CCCCCC#N ? inactive
